meta.source: the RNAGym collection of RNA variant scans (doi:10.7554/elife.80360)

B1: Hairpin Ribozyme (parent)
chain: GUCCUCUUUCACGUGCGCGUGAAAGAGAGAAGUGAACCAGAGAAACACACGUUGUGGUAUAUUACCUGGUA

variants of: B1; assay: self-cleavage, relative activity (ratio to wild type); higher = more cleavage; co-transcriptional
Entries get a class label from measured self-cleavage. See ranges: low bracket = under 0.2, middle bracket = from 0.2 up to 0.3, high bracket = 0.3 and over

sequence.string: GUCCUCUUUCACGUGCGCGUGAAAGAGAGAAGUGAACCAGAGAAACACAGGUUGUGGUAUAUUACCUGGUA
group: middle bracket
//
sequence.string: GUCCUCUUUCACGUGCGCGUGAAAGAGAGAAGUAAACCAGAGGAACACACGUUGUGGUAUAUUACCUGGUA
group: low bracket
//
sequence.string: GUCUUCUUUCACGUGCGCGUGAAGGAGAGAAGUGAACCAGAGAAACACACGUUGUGGUAUAUUACCUGGUA
group: middle bracket
//
sequence.string: GUCCUCUUACACGUGCGCGUGAAAGAGAGAGGUGAACCAGAGAAACACACGUUGUGGUAUAUUACCUGGUA
group: high bracket
//
sequence.string: GUCCUCUUUCACGGCCGCGUGAAAGAGAGAAGUGAACCAGAGAAACACACGUUGUGGUAUAUUACCUGGUA
group: high bracket
//
sequence.string: GUCCUCUUUCACGUGCUCGUGAAAGAGAGAAGUGUACCAGAGAAACACACGUUGUGGUAUAUUACCUGGUA
group: high bracket
//
sequence.string: UUCCUCUUUCACGUGCGCGUGAAAGACAGAAGUGAACCAGAGAAACACACGUUGUGGUAUAUUACCUGGUA
group: low bracket
//
sequence.string: UCCCUCUUUCACGUGCGCGUGAAAGAGAGAAGUGAACCAGAGAAACACACGUUGUGGUAUAUUACCUGGUA
group: middle bracket
//
sequence.string: GUCCUCUUUCACGUGCGUGUGAAAGAGAGAAGUGAACCAGAGAAACACACGUUGUGGUAUUUUACCUGGUA
group: middle bracket
//
sequence.string: GUCCUCUUUCACGUGCCCGCGAAAGAGAGAAGUGAACCAGAGAAACACACGUUGUGGUAUAUUACCUGGUA
group: high bracket
//
sequence.string: GUCCUCUUUCACGUGCGCGUGAAAGAGAGAAGUGACCCAGAGAAACACACGUUGUGGUAUAUUAUCUGGUA
group: low bracket
//
sequence.string: AUCCUCUUUCACGUGCGCGUGAAAGAGAGAAGUGAACCAGAGAAACACACGUUGUGGUAUAUUACCUGGUC
group: high bracket
//
sequence.string: GUCCUCUUUCACGUGCGCGUCAAAGAGAGAAGUGAACCAGUGAAACACACGUUGUGGUAUAUUACCUGGUA
group: high bracket
//
sequence.string: GUCCACUUUCACGUGCGCGUGAAAGAGAGAAGUGAACCAGAGAAAAACACGUUGUGGUAUAUUACCUGGUA
group: low bracket
//
sequence.string: GUCCUCUUUCACGUGCGCGUGAAAGAGAGAAGUGGACCAGAGAAACACACGUUGUGGUAUAUUAACUGGUA
group: high bracket
//
sequence.string: GUCCUCUUUCACGUGCGCGUGAAAGAGAGAAGCGAACCAGAGAAACACACGUUGUGGUAAAUUACCUGGUA
group: low bracket
//
sequence.string: GUCCUCUUUCACGUGCGCGUGAAAGAGAGAAGUGAACCAGAGAAACACACUUUGUGGUAAAUUACCUGGUA
group: high bracket
//
sequence.string: GUCCUCUUUCACGUGCGCCUGAAAGAGAGAAGUGAACCAGAGAAACACACGUUCUGGUAUAUUACCUGGUA
group: high bracket
//
sequence.string: GUUCUCUUUCACGUGCGCGUGAAAGAGACAAGUGAACCAGAGAAACACACGUUGUGGUAUAUUACCUGGUA
group: low bracket
//
sequence.string: GUCCUCUUUGACGUGCGCGUGAAAAAGAGAAGUGAACCAGAGAAACACACGUUGUGGUAUAUUACCUGGUA
group: middle bracket
//
sequence.string: GUCCUCUUUCACGUGCGCGUGAAAGAGAGAAGUGAACCAGAGAAACACACGUUGUGGAAUAUUAACUGGUA
group: high bracket
//
sequence.string: GUCCUCUUUCACGUGCGCGUGAAAGAGAGAAGUGAACCAGAGAAACACAAGUUGUGGUCUAUUACCUGGUA
group: low bracket
//
sequence.string: GUCCUCUUUCACGUGCGCGUGAAAGCGAGAAGUGUACCAGAGAAACACACGUUGUGGUAUAUUACCUGGUA
group: high bracket
//
sequence.string: GUCCUAUUUCACGUGCGCGUGAAAGAGAGAAGUGAACCAGAGAAACACACGUUGUGGUAUAUUAGCUGGUA
group: low bracket
//
sequence.string: GUCCUCUUUCACGUGCGCGUGAAAGAGAGAAGUGAACCAGAGAAACACACCUUGAGGUAUAUUACCUGGUA
group: low bracket
//
sequence.string: GUCCUCUUUCACGUGCGCGUGAAAGAGAGAAGUGAACCAGAGAAACACACCAUGUGGUAUAUUACCUGGUA
group: high bracket
//
sequence.string: GUCCUCUUGCACGUGCGCGUGAAAGAGAGAAGUGAACCAAAGAAACACACGUUGUGGUAUAUUACCUGGUA
group: low bracket
//
sequence.string: GUCCUCGUUCACGUGCGCGUGAAAGAGAGAAGUGAACCAGAGAAACACACGUUGUGGUAUAUUACCAGGUA
group: middle bracket
//
sequence.string: GUCCUCUUUCACGUGCGCGUGAAAGAGAGAAGUGAACCAGAGAAACACACGUUGUGGUAUAUUACCUGCUU
group: high bracket
//
sequence.string: GUCCUCUUUCACGCGCGCGUGAAAGAGAGAAGUGAACCAGAGAAACACACGUUGUGGUAUCUUACCUGGUA
group: low bracket
//
sequence.string: GUCCUCUUUCACGUGCGCGUGAAAGACAGAGGUGAACCAGAGAAACACACGUUGUGGUAUAUUACCUGGUA
group: low bracket
//
sequence.string: GUCCUCUUACACGUGCGCGUGAAAUAGAGAAGUGAACCAGAGAAACACACGUUGUGGUAUAUUACCUGGUA
group: middle bracket
//
sequence.string: GUCCUCUCUCACGUGCGCGUGAAAGAGAGAAGUGAAACAGAGAAACACACGUUGUGGUAUAUUACCUGGUA
group: middle bracket
//
sequence.string: GUCCUCUUUCACGAGCGCGUGAAAGAGAGAAGUGAACCAGAGAAACACACCUUGUGGUAUAUUACCUGGUA
group: high bracket
//
sequence.string: GUCCUCUUUCACGUGCGCGUGAAAGAGAGAAGUGAACCAGAGAAACACACGUUGUGGUAUAUUACAUGGUC
group: high bracket
//
sequence.string: GUCCUCUUUCACGUGCGCGUGAAAGAGAGAAGUGAAACAGAGAAACAGACGUUGUGGUAUAUUACCUGGUA
group: low bracket
//
sequence.string: GUCCUCUUUCACGUACGCGUGAAAGAGAGAAGUGAACCAGUGAAACACACGUUGUGGUAUAUUACCUGGUA
group: high bracket
//
sequence.string: GUCCUCUUUCACGUGCGCGUGAAAUAGAGAAAUGAACCAGAGAAACACACGUUGUGGUAUAUUACCUGGUA
group: low bracket
//
sequence.string: GUCCUCUUUCACGUGCGCGUGAAAGAGAGAACUGAACCAGAGAAACACACGUUUUGGUAUAUUACCUGGUA
group: low bracket
//
sequence.string: GUCCUGUUUCACGUGCGCGUCAAAGAGAGAAGUGAACCAGAGAAACACACGUUGUGGUAUAUUACCUGGUA
group: low bracket
//
sequence.string: GUCCUCUGUCACGUGCGCGUGAAAGAGAGAAGUGAACCAGAGAAACACACGUUGUGGUAUAUUACCUCGUA
group: low bracket
